# method: Repeated once-daily oral dosing with food (Days 1-7) in healthy subjects, PK and PD
# Type: in vivo, human
# test_conditions: both sexes, human, plasma, oral, Day 7; read-out: average t½, range
property_label: half-life

Consider the molecule Cc1ccc(COC(=O)N2CC[C@H](CNc3ncccn3)[C@H](F)C2)cc1 [Form II] and give its recorded half-life.
17 to 25 h

###

# method: Repeated once-daily oral dosing with food (Days 1-7) in healthy subjects, PK and PD
# Type: in vivo, human
# test_conditions: both sexes, human, plasma, oral, 12 mg, elderly, 12 mg, Day 1; read-out: AUC0-24, Mean (SD)
property_label: AUC(0-t) (ng·h/mL)
Give the value, in units of ng·h/mL, as a plain number.

Quick one: give measured AUC(0-t) for Cc1ccc(COC(=O)N2CC[C@H](CNc3ncccn3)[C@H](F)C2)cc1 [Form II]
2130

###

# method: Human pharmacokinetic study, single ascending oral doses
# Assay type: in vivo
# test_conditions: male, human, plasma, oral, 15 mg, fasted, mean; read-out: t1/2 (converted)
property_label: half-life (h)
Field format: number, assumed h, no unit text.

Determine from records and report half-life for Cc1ccc(COC(=O)N2CC[C@H](CNc3ncccn3)[C@H](F)C2)cc1 [Form II]
16.8

###

# method: Repeated once-daily oral dosing with food (Days 1-7) in healthy subjects, PK and PD
# Format: in vivo, human
# test_conditions: both sexes, human, plasma, oral, 16 mg, young subjects, 16 mg, Day 1; read-out: tmax, Median
# Experimental: A randomized, double-blind, placebo-controlled, parallel-dose group in-patient study is conducted to investigate the pharmacodynamic (PD) effects of crystalline Form II of Compound (I) in healthy subjects. The study is designed as a three-part, sequential study. […]
property_label: Tmax (h)
Hi! Could you send only the number? It should be in h, unit omitted.

Please report the measured Tmax for Cc1ccc(COC(=O)N2CC[C@H](CNc3ncccn3)[C@H](F)C2)cc1 [Form II]
3

###

# method: Repeated once-daily oral dosing with food (Days 1-7) in healthy subjects, PK and PD
# Assay type: in vivo, human
# test_conditions: both sexes, human, plasma, oral, 8 mg, young subjects, 8 mg, Day 1; read-out: AUClast, Mean (SD)
property_label: AUC(0-t) (ng·h/mL)
Value expressed in ng·h/mL; do not type the unit.

Query AUC(0-t) for Cc1ccc(COC(=O)N2CC[C@H](CNc3ncccn3)[C@H](F)C2)cc1 [Form II]
1490

###

# tested_target: GluN1a/GluN2B human receptors (Homo sapiens, UniProt Q05586+Q13224)
# Sequence (Q13224 27-1484, other chains not shown): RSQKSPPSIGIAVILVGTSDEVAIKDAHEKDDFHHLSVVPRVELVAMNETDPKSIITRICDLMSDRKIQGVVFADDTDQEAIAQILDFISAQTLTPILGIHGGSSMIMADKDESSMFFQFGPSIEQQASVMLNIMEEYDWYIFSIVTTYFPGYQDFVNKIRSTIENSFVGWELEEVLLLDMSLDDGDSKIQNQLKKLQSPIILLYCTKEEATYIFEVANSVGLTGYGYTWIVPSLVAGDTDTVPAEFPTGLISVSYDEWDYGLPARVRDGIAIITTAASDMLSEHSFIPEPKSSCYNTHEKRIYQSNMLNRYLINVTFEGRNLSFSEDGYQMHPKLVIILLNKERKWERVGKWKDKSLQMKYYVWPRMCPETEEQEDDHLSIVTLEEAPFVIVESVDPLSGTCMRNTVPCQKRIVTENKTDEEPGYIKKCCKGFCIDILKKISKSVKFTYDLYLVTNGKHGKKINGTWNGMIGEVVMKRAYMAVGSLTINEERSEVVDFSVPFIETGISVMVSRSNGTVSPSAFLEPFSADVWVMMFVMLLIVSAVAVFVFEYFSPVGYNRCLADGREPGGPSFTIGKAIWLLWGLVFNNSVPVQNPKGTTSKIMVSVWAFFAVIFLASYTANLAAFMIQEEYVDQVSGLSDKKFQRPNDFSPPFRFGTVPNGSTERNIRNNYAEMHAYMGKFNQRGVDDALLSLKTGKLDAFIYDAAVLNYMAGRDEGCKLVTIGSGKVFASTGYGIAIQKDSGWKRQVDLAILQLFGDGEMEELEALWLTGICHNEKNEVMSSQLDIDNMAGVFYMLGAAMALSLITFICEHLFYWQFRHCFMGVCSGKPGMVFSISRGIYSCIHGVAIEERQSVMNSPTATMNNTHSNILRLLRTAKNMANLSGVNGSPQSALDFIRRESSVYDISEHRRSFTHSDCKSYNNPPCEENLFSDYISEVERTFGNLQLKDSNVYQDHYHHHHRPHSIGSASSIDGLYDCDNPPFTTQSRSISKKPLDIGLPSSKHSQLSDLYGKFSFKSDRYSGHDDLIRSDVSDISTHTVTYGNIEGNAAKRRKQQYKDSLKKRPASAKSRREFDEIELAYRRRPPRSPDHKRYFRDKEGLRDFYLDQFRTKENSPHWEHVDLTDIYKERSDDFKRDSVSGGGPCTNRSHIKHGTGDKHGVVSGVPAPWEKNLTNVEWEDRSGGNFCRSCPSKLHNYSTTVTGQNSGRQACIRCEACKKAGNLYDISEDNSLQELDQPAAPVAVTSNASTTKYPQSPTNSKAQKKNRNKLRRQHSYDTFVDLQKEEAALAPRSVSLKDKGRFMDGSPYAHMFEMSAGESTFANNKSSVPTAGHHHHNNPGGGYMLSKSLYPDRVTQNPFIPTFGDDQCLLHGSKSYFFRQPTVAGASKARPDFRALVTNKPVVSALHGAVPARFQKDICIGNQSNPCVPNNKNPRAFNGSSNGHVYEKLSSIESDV
# method: Radioligand binding, L(tk−) cell membranes expressing human GluN1a/GluN2B
# Design: expressed in transfected cells; host or cells: L(tk−) cells (mouse fibroblasts), dexamethasone-inducible expression
# test_conditions: 4° C., geometric mean
property_label: Ki (nM)
The figure you give is taken to be in nM; do not add the unit.

Return Ki (reported value) for this molecule: Cc1ccc(COC(=O)N2CC[C@H](CNc3ncccn3)[C@H](F)C2)cc1 [Form II]
1.8

###

# method: Human pharmacokinetic study, single ascending oral doses
# Format: in vivo
# test_conditions: male, human, plasma, oral, 8 mg, fasted, mean
property_label: Cmax (ng/mL)
# number only, unit ng/mL dropped from output

Specify Cmax for Cc1ccc(COC(=O)N2CC[C@H](CNc3ncccn3)[C@H](F)C2)cc1 [Form II] and stop.
212

###

# method: Repeated once-daily oral dosing with food (Days 1-7) in healthy subjects, PK and PD
# Assay type: in vivo, human
# test_conditions: both sexes, human, plasma, oral, 8 mg, young subjects, 8 mg, Day 7; read-out: tmax, Median
property_label: Tmax (h)
Could you give me the number in h? Just the number is fine.

Return the recorded Tmax value; entry: Cc1ccc(COC(=O)N2CC[C@H](CNc3ncccn3)[C@H](F)C2)cc1 [Form II]
3

###

# method: Repeated once-daily oral dosing with food (Days 1-7) in healthy subjects, PK and PD
# Format: in vivo, human
# test_conditions: both sexes, human, plasma, oral, Day 7; read-out: average t½, range across genders
# Method: A randomized, double-blind, placebo-controlled, parallel-dose group in-patient study is conducted to investigate the pharmacodynamic (PD) effects of crystalline Form II of Compound (I) in healthy subjects. The study is designed as a three-part, sequential study. […]
property_label: half-life

Kindly indicate its recorded half-life. Item: Cc1ccc(COC(=O)N2CC[C@H](CNc3ncccn3)[C@H](F)C2)cc1 [Form II]
21 to 24 h

###

# method: Human pharmacokinetic study, single ascending oral doses
# Type: in vivo
# test_conditions: male, human, plasma, oral, 4 mg, 4 mg (fed), mean
property_label: AUC(0-inf) (ng·h/mL)
Give the value, in units of ng·h/mL, as a plain number.

Using known records, supply AUC(0-inf) for Cc1ccc(COC(=O)N2CC[C@H](CNc3ncccn3)[C@H](F)C2)cc1 [Form II]
1140

###

# tested_target: NMDA-GluN2B receptors, rat whole brain homogenate (Rattus norvegicus, UniProt P35439+Q00960)
# Construct: performed using whole brain homogenate (rat); from tissue; host or cells: rat whole brain homogenate
# Sequence (Q00960 27-1482, other chains not shown): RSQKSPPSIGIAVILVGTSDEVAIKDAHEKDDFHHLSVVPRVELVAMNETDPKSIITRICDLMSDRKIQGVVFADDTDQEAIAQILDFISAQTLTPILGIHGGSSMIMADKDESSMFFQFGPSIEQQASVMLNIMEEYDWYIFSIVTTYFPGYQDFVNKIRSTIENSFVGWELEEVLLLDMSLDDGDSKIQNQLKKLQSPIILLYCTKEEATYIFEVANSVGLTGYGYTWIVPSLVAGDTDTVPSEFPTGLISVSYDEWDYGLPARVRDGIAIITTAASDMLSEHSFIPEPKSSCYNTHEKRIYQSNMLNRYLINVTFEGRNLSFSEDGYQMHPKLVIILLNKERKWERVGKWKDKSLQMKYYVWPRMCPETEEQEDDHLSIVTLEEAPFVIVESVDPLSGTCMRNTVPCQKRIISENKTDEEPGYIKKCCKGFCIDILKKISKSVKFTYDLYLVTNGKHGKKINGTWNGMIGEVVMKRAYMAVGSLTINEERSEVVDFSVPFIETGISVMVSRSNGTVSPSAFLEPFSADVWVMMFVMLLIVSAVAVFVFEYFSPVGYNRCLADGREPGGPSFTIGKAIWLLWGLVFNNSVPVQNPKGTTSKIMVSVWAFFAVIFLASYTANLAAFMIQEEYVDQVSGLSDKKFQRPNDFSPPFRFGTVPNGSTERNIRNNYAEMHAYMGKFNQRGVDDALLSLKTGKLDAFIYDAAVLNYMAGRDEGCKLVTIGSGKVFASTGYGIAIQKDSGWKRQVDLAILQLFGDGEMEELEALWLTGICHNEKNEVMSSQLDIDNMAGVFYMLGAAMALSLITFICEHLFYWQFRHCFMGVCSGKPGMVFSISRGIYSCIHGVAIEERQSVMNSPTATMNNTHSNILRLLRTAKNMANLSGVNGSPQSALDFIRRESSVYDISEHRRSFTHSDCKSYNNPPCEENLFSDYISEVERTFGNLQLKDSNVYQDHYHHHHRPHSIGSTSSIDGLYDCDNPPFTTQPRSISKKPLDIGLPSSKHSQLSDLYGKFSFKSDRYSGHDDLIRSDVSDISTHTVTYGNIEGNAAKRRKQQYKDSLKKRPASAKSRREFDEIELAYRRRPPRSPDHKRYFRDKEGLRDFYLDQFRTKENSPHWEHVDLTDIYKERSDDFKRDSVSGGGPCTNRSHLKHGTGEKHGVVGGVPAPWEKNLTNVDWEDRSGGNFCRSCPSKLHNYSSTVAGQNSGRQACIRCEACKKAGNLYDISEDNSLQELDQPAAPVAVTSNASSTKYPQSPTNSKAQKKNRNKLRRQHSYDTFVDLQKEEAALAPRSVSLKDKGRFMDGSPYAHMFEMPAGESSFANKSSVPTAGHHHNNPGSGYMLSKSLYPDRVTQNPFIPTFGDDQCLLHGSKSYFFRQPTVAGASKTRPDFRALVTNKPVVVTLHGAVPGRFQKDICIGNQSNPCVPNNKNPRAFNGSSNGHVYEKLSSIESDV
# method: Radioligand binding, rat whole brain homogenate
# test_conditions: 37° C., geometric mean
property_label: pKi
// returns pKi (minus log10 of molar concentration), number only

// fetch pKi given entry Cc1ccc(COC(=O)N2CC[C@H](CNc3ncccn3)[C@H](F)C2)cc1 [Form II]
7.85

###

# method: Repeated once-daily oral dosing with food (Days 1-7) in healthy subjects, PK and PD
# Type: in vivo, human
# test_conditions: male, human, plasma, oral, males, all doses pooled, Day 7; read-out: tmax, Median
property_label: Tmax (h)
The reply should be a number in h, with the unit left off.

Name the recorded Tmax of the compound listed here: Cc1ccc(COC(=O)N2CC[C@H](CNc3ncccn3)[C@H](F)C2)cc1 [Form II]
1.75

###

# tested_target: NMDA-GluN2B receptors, rat whole brain homogenate (Rattus norvegicus, UniProt P35439+Q00960)
# Construct: performed using whole brain homogenate (rat); from tissue; host or cells: rat whole brain homogenate
# method: Radioligand binding, rat whole brain homogenate
# test_conditions: room temp., geometric mean
property_label: pKi
Note on units: pKi is unitless, being -log10 of a concentration expressed in mol/L.

Supply measured pKi of Cc1ccc(COC(=O)N2CC[C@H](CNc3ncccn3)[C@H](F)C2)cc1 [Form II] in your reply.
8.48

###

# method: Single-dose pharmacokinetics in rats (oral and IV)
# Type: in vivo
# test_conditions: male, Sprague-Dawley, rat, plasma; PO 15 mg/kg, mean (S.D.)
property_label: AUC(0-inf) (µM·h)
Unit µM·h implied. Number only.

State its AUC(0-inf) for this compound: Cc1ccc(COC(=O)N2CC[C@H](CNc3ncccn3)[C@H](F)C2)cc1 [Form II]
14.9

###

# method: Repeated once-daily oral dosing with food (Days 1-7) in healthy subjects, PK and PD
# Assay type: in vivo, human
# test_conditions: both sexes, human, plasma, oral, 12 mg, intermediate age, 12 mg, Day 7; read-out: tmax, Mean (SD)
property_label: Tmax
Param answer (str): number followed by unit.

Tell me Tmax reported for Cc1ccc(COC(=O)N2CC[C@H](CNc3ncccn3)[C@H](F)C2)cc1 [Form II]
1.83 h

###

# method: in vivo
# test_conditions: both, Sprague-Dawley, rat, po, 100 mg/kg
property_label: Cmax

Return value of Cmax for input Cc1ccc(COC(=O)N2CC[C@H](CNc3ncccn3)[C@H](F)C2)cc1 [Form II] , no commentary.
~26 µM

###

# method: Human pharmacokinetic study, single ascending oral doses
# Assay type: in vivo
# test_conditions: male, human, plasma, oral, 4 mg, 4 mg (fed), mean
property_label: Cmax

For the compound Cc1ccc(COC(=O)N2CC[C@H](CNc3ncccn3)[C@H](F)C2)cc1 [Form II] , give its reported Cmax.
80 ng/mL

###

# method: Repeated once-daily oral dosing with food (Days 1-7) in healthy subjects, PK and PD
# Format: in vivo, human
# test_conditions: both sexes, human, plasma, oral, 12 mg, elderly, 12 mg, Day 1; read-out: Vz/F, Mean (SD)
property_label: Vd/F (L)
Quick note: give the figure in L, leave out the unit.

Give recorded Vd/F. Cc1ccc(COC(=O)N2CC[C@H](CNc3ncccn3)[C@H](F)C2)cc1 [Form II]
164

###

# method: Single-dose pharmacokinetics in monkeys (oral and IV)
# Type: in vivo
# test_conditions: male, rhesus monkey, plasma, 15 mg/kg; dose-normalized AUC0-∞ after IV and PO, crossover
property_label: bioavailability (%)
Only the number, expressed in %, is required.

Assign bioavailability to the following record: Cc1ccc(COC(=O)N2CC[C@H](CNc3ncccn3)[C@H](F)C2)cc1 [Form II]
50

###

# method: Human pharmacokinetic study, single ascending oral doses
# Type: in vivo
# test_conditions: male, human, plasma, oral, 8 mg, fasted, mean
property_label: AUC(0-inf)
Param answer (str): number followed by unit.

Give the measured AUC(0-inf) for Cc1ccc(COC(=O)N2CC[C@H](CNc3ncccn3)[C@H](F)C2)cc1 [Form II]
2260 ng·h/mL

The origin of these recorded values is patent US12410153B2.
